- measurement_target: 5HT6 human recombinant receptor (Homo sapiens)
- Construct: purchased Receptor Biology; host or cells: HEK-293 cell membranes
- Sequence (P50406 whole entry): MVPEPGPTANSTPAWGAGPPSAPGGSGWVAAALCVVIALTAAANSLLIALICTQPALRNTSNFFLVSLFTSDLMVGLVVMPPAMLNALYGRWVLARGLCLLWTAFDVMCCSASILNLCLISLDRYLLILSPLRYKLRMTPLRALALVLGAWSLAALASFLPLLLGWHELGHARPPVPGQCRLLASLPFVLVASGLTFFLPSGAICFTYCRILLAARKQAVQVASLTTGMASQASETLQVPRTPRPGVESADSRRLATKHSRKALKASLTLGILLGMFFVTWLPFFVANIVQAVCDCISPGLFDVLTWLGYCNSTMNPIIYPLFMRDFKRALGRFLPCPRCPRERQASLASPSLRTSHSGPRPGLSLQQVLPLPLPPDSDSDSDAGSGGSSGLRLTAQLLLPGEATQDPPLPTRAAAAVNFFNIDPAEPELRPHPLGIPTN
- test: Binding with Serotonin Receptor 5HT6 ([3H]-LSD radioligand, HEK-293 cell membranes)
- experimental_conditions: [3H]-LSD 2.7 nM; HEK-293 membranes; non-linear regression EBDA/LIGAND
Label key: YES means Ki under 3 nM; NO means Ki of 3 nM or more.

NCCc1c[nH]c2ccc(NS(=O)(=O)c3ccc4ccccc4c3)cc12 [Example 7] :: NO
NCCc1c[nH]c2ccc(NS(=O)(=O)c3ccc4c(Cl)cccc4c3)cc12 [Example 8] :: YES

# strict comparison: is reported Ki < 3 nM? input = CCNCCc1c[nH]c2ccc(NS(=O)(=O)c3ccc4c(Cl)cccc4c3)cc12 [Example 3]
YES

Subsequent entry: NCCc1c[nH]c2ccc(NS(=O)(=O)c3cccc4ccccc34)cc12 [Example 5]
NO

Subsequent entry: CNCCc1c[nH]c2ccc(NS(=O)(=O)c3cccc4ccccc34)cc12 [Example 2]
YES

Subsequent entry: CNCCc1c[nH]c2ccc(NS(=O)(=O)c3ccc4c(Cl)cccc4c3)cc12 [Example 4]
YES

The measurements presented in this section are drawn from patent US20100120886A1.
